- target: human PDE10A enzyme (Homo sapiens)
- Construct: Human PDE10A full-length gene was transfected into Sf9 or COS-7 cells; His-tag; made in house; host or cells: Sf9 or COS-7 cells
- assay.explanation: PDE10A enzyme activity inhibition test (SPA)
- Format: biochemical
- condition.summary: compound 1 μM, substrate [3H]cGMP, 60 min at room temperature, read-out: inhibition rate (%) (1 μM)
- Protocol: Human PDE10A full-length gene was transfected into Sf9 or COS-7 cells. The cells were disrupted and centrifuged, and human PDE10A enzyme was obtained from the residue. […] The PDE activity was measured using an SPA (Scintillation Proximity Assay) (GE Healthcare). […] The compounds were evaluated in duplicate in 96-well half-area plates (Corning). […] After standing still for 1 hr, the measurement was performed using a scintillation counter (PerkinElmer) and the inhibition rate was calculated. […]
parameter.measured: inhibition at 1 µM (%)

O=c1c(OCCn2ccn3ccnc23)cn(CC2CC2)nc1-c1ccnn1-c1ccccc1: 94
Cn1nccc1-c1nn(-c2ccccc2)cc(OCCCc2nc3ccccc3n2C)c1=O: 95.4
Cn1cc(OCCCc2cn3ccccc3n2)c(=O)c(-c2ccnn2-c2ccccc2)n1: 100
O=c1c(OCCN2CCn3c2nc2ccccc23)cn(CC(F)(F)F)nc1-c1ccnn1-c1ccccc1: 98
Cn1c(CCCOc2cn(CC3CC3)nc(-c3ccnn3-c3ccccc3)c2=O)nc2cccnc21: 100

(P) Cn1c(CCCOc2cn(CC(F)(F)F)nc(-c3ccnn3-c3ccccc3)c2=O)nc2cccnc21
(Q) O=c1c(OCCOc2ccc3ccccc3n2)cn(CC2CC2)nc1-c1ccnn1-c1ccccc1
(R) O=c1cnn(-c2cccc(C(F)(F)F)c2)cc1OCc1ccc2ccccc2n1
(S) Cn1nccc1-c1nn(-c2ccccc2)cc(OCc2ccc3ccccc3n2)c1=O
Please give the order of these compounds when sorted by inhibition at 1 µM, largest value leading. Reply with the labels, ordered as the question asks.
P, S, Q, R

* * *

- target: human PDE10A enzyme (Homo sapiens, UniProt Q9Y233)
- Construct: Human PDE10A full-length gene was transfected into Sf9 or COS-7 cells; His-tag; made in house; host or cells: Sf9 or COS-7 cells
- Sequence (Q9Y233 267-1055): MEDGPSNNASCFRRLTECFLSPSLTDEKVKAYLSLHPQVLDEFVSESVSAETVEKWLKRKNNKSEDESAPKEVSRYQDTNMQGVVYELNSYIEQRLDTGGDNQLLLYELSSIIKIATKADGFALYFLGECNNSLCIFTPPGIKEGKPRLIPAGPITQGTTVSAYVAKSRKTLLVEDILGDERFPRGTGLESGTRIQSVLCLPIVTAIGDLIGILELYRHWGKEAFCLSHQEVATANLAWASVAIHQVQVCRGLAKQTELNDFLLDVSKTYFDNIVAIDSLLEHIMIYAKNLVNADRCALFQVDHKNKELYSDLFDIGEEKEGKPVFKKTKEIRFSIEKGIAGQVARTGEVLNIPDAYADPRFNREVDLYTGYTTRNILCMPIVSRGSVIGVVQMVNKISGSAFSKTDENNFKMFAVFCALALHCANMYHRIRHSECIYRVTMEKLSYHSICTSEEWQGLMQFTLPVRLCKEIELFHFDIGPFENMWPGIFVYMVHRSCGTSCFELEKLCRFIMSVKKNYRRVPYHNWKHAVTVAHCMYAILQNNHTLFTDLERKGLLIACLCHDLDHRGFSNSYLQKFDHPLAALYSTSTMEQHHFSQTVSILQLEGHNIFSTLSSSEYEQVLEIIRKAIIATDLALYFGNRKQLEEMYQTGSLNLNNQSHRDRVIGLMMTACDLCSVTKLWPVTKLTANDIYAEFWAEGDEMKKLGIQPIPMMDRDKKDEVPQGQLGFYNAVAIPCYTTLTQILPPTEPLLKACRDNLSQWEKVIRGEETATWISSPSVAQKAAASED
- assay.explanation: PDE10A enzyme activity inhibition test (SPA)
- Type: biochemical
- condition.summary: compound 1 μM, substrate [3H]cGMP, 60 min at room temperature, read-out: inhibition rate (%) (1 μM)
parameter.measured: inhibition at 1 µM (%)

The examples below pair each entry with its known result.
Cn1nccc1-c1nn(-c2ccccc2)cc(OCCc2ccc3ccccc3n2)c1=O [Example 7]: 96.8
Cn1c(OCCOc2cn(CC3CC3)nc(-c3ccnn3-c3ccccc3)c2=O)nc2ccccc21 [Example 14]: 98
O=c1c(OCCCc2cn3ccccc3n2)cn(C2CCC2)nc1-c1ccnn1-c1ccccc1 [Example 24]: 100

(1) Cn1cc(OCCN2CCn3c2nc2ccccc23)c(=O)c(-c2ccnn2-c2ccccc2)n1 [Example 2]
(2) O=c1c(OCc2ccc3cccnc3c2)cn(CC2CC2)nc1-c1ccnn1-c1ccccc1 [Example 18]
(3) O=c1c(OCc2ccc3ccccc3n2)cn(CC2CC2)nc1-c1ccnn1-c1ccccc1 [Example 17]
Arrange these compounds by their inhibition at 1 µM, starting with the largest number. Note for the reader: the ranking is given by listing the labels in the order requested.
1, 3, 2
(1: 101%, 3: 60%, 2: 20%)

* * *

- target: human PDE10A enzyme (Homo sapiens)
- Construct: Human PDE10A full-length gene was transfected into Sf9 or COS-7 cells; His-tag; made in house; host or cells: Sf9 or COS-7 cells
- assay.explanation: PDE10A enzyme activity inhibition test (SPA)
- Assay type: biochemical
- condition.summary: compound 1 μM, substrate [3H]cGMP, 60 min at room temperature, read-out: inhibition rate (%) (1 μM)
parameter.measured: inhibition at 1 µM (%)

Cn1c(CCCOc2cn(CC(F)(F)F)nc(-c3ccnn3-c3ccccc3)c2=O)nc2ccccc21 [Example 25]: 96
O=c1c(OCCCc2cn3ccccc3n2)cn(CC2CC2)nc1-c1ccnn1-c1ccccc1 [Example 16]: 98
Cn1cc(OCCCc2nc3cccnc3n2C)c(=O)c(-c2ccnn2-c2ccccc2)n1 [Example 12]: 102
Cn1cc(OCCOc2nc3ccccc3n2C)c(=O)c(-c2ccnn2-c2ccccc2)n1 [Example 10]: 95
Cn1c(CCCOc2cn(C3CCC3)nc(-c3ccnn3-c3ccccc3)c2=O)nc2ccccc21 [Example 20]: 99
Cn1c(CCCOc2cn(C3CCC3)nc(-c3ccnn3-c3ccccc3)c2=O)nc2cccnc21 [Example 21]: 107
O=c1c(OCCN2CCn3c2nc2ccccc23)cn(CC2CC2)nc1-c1ccnn1-c1ccccc1 [Example 4]: 100
Cn1cc(OCCCc2nc3ccccc3n2C)c(=O)c(-c2ccnn2-c2ccccc2)n1 [Example 1]: 96

* * *

- target: human PDE10A enzyme (Homo sapiens, UniProt Q9Y233)
- Construct: Human PDE10A full-length gene was transfected into Sf9 or COS-7 cells; His-tag; made in house; host or cells: Sf9 or COS-7 cells
- assay.explanation: PDE10A enzyme activity inhibition test (SPA)
- Format: biochemical
- condition.summary: compound 1 μM, substrate [3H]cGMP, 60 min at room temperature, read-out: inhibition rate (%) (1 μM)
parameter.measured: inhibition at 1 µM (%)

Cn1nccc1-c1nn(-c2ccccc2)cc(OCCN2CCn3c2nc2ccccc23)c1=O [Example 6]: 97.2
O=c1c(OCCN2CCn3c2nc2ccccc23)cn(C2CCC2)nc1-c1ccnn1-c1ccccc1 [Example 22]: 98
Cn1c(OCCOc2cn(C3CCC3)nc(-c3ccnn3-c3ccccc3)c2=O)nc2ccccc21 [Example 23]: 100
Cn1c(CCCOc2cn(CC3CC3)nc(-c3ccnn3-c3ccccc3)c2=O)nc2ccccc21 [Example 3]: 98

All figures here come from patent US8883788B2.
